src = ChEMBL document CHEMBL4431368

Molecular target: Phosphatidylinositol 4,5-bisphosphate 3-kinase catalytic subunit delta isoform (Homo sapiens, UniProt O00329, N836D)
Sequence (O00329 whole entry N836D, canonical isoform): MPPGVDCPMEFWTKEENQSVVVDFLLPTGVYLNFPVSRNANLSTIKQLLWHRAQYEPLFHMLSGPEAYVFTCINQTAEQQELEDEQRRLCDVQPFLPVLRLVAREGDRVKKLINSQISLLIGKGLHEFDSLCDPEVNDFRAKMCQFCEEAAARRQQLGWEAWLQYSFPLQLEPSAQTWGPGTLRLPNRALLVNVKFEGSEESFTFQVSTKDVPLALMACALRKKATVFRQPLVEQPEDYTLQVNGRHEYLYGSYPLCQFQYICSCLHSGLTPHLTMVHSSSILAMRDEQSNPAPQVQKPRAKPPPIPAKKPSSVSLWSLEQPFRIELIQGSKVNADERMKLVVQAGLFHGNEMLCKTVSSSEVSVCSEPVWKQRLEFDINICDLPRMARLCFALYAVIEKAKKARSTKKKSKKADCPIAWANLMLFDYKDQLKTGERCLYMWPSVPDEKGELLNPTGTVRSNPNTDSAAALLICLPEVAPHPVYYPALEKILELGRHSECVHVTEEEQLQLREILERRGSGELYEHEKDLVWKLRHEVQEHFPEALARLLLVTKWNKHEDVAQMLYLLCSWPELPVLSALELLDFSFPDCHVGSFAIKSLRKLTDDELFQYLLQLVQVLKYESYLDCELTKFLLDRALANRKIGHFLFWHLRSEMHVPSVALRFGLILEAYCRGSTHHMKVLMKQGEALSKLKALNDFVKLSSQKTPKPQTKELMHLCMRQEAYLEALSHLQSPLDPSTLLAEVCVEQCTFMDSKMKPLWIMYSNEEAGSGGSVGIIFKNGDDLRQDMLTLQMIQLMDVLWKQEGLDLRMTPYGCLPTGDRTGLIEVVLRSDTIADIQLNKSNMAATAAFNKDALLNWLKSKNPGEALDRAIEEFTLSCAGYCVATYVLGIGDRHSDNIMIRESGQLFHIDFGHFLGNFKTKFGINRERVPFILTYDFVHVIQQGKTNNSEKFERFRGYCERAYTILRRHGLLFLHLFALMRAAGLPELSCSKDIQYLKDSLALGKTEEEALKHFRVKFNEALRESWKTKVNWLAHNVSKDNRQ
Assay: Inhibition of PI3Kdelta N836D mutant (unknown origin) expressed in Sf21 cells co-expressing p85 by kinase-glo luminescence assay
// reported IC50 per item
quantity.kind: IC50 (µM)

>>> number("O=C([C@@H]1CCCCN1)N1CCN(c2nc(N3CCOCC3)nc(-n3c(C(F)F)nc4ccccc43)n2)CC1")
0.024
>>> number("O=C([C@H]1CCCN1)N1CCN(c2nc(N3CCOCC3)nc(-n3c(C(F)F)nc4ccccc43)n2)CC1")
0.009
>>> number("O=C(C[C@@H]1CCCN1)N1CCN(c2nc(N3CCOCC3)nc(-n3c(C(F)F)nc4ccccc43)n2)CC1")
0.007
>>> number("C[C@@H](NC(=O)C1CCN(c2nc(N3CCOCC3)nc(-n3c(C(F)F)nc4ccccc43)n2)CC1)C(N)=O")
1.9
